molecular target: GIPC2, Q8TF65; test: holdup assay; parameters: key: below the threshold = too weak to quantify, mostly under pKd 3.1 to 4; details: plain residues with an end cap or a label only (N-terminal biotin on a linker: ado-ado)
Sequence (Q8TF65 112-203): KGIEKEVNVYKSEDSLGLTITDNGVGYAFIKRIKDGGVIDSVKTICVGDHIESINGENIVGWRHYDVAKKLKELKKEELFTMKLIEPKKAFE
METRIC: pKd

binder="RFQQRMQTHV [KIRREL1, Q96J84]" metric=pKd endpoint_result="below the threshold"
binder="PPGKHLVTEV [KCNA7, Q96RP8]" metric=pKd endpoint_result="below the threshold"
binder="DGVNEKVSCV [HTR2A, P28223]" metric=pKd endpoint_result="below the threshold"
binder="MHIQEKGFHV [EPHA6, Q9UF33]" metric=pKd endpoint_result="below the threshold"
binder="EIPAQSPTCV [FZD10, Q9ULW2]" metric=pKd endpoint_result=3.74
binder="ELSATVTTDC [TRIP6, Q15654]" metric=pKd endpoint_result="below the threshold"
binder="PSHPRLQTHV [KIRREL2, Q6UWL6]" metric=pKd endpoint_result="below the threshold"
binder="SPDRDRESIV [SCN5A, Q14524]" metric=pKd endpoint_result=4.06
binder="LESTTVGTSV [KARS1, Q15046]" metric=pKd endpoint_result="below the threshold"
binder="KRPEMTSSSV [MUC3A, MUC3B, Q02505;Q9H195]" metric=pKd endpoint_result=3.73
binder="ARGPPRESEV [FAM110D, Q8TAY7]" metric=pKd endpoint_result=4.32
binder="KSRVAFFEEL [NF2, P35240]" metric=pKd endpoint_result=3.48
binder="NIAESLESLV [PTPRZ1, P23471]" metric=pKd endpoint_result="below the threshold"
binder="NTLNRKTTPV [CACNG8, Q8WXS5]" metric=pKd endpoint_result="below the threshold"
binder="IDESKKEWLI [CNTNAP2, Q9UHC6]" metric=pKd endpoint_result="below the threshold"
binder="AAVENKVTDL [PLXNB1, O43157]" metric=pKd endpoint_result="below the threshold"
binder="STKRKLASAV [NCF1, P14598]" metric=pKd endpoint_result="below the threshold"
binder="TRKRSGEAAV [PFKM, P08237]" metric=pKd endpoint_result="below the threshold"
binder="QLSFNTDTLC [ABCA2, Q9BZC7]" metric=pKd endpoint_result="below the threshold"
binder="REEPDHSTEV [CCRL2, O00421]" metric=pKd endpoint_result=4.01
binder="ILRKSTTTTV [PRR16, Q569H4]" metric=pKd endpoint_result="below the threshold"
binder="NNNVVKVDSV [MTNR1A, P48039]" metric=pKd endpoint_result="below the threshold"
binder="PSVGSKKTVL [REELD1, A0A1B0GV85]" metric=pKd endpoint_result="below the threshold"
binder="NTANRRTTPV [CACNG2, Q9Y698]" metric=pKd endpoint_result="below the threshold"
binder="GIKKITSTAL [RPS6KA3, P51812]" metric=pKd endpoint_result="below the threshold"
binder="NISYRRESAI [KCNJ4, P48050]" metric=pKd endpoint_result="below the threshold"
binder="DPAESMESLV [PTPRG, P23470]" metric=pKd endpoint_result=3.95
binder="TISFTQTSQF [SLC1A1, P43005]" metric=pKd endpoint_result="below the threshold"
binder="AQRARSPSDV [GPR12, P47775]" metric=pKd endpoint_result="below the threshold"
binder="PYPTADHMLA [JUP, P14923]" metric=pKd endpoint_result="below the threshold"
binder="DTKNYKQTSV [CRIPT, Q9P021]" metric=pKd endpoint_result="below the threshold"
binder="ARSAAASNYV [CLDN4, O14493]" metric=pKd endpoint_result="below the threshold"
